- TEST SYSTEM: T1, Sen1Hel (wild type) (Saccharomyces cerevisiae, UniProt Q00416 1095-1904)
- T1 sequence: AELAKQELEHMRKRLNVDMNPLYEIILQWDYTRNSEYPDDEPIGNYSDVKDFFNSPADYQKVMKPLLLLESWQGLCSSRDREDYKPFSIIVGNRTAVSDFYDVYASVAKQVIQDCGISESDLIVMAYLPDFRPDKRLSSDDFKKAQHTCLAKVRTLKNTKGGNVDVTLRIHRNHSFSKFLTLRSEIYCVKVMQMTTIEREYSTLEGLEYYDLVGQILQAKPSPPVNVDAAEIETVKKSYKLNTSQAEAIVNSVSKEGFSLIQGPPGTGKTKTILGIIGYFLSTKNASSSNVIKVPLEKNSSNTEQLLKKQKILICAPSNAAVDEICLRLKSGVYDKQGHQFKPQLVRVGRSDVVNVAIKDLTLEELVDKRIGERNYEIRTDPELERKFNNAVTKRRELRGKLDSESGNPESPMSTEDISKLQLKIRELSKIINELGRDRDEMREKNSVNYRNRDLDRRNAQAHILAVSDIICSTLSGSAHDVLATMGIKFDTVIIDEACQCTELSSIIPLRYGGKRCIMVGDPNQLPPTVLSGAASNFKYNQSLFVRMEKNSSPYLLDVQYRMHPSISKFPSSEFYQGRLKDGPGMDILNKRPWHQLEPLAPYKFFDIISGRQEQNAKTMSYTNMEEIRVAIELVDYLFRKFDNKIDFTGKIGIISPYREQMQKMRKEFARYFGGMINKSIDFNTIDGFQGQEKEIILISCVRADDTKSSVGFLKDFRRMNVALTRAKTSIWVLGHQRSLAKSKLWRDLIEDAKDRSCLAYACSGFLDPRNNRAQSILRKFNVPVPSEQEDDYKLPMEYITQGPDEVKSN
- ASSAY OVERVIEW: fluorescence anisotropy; 2 mM Mg2+; FA: 20 mM Hepes pH 7.5, 300 mM NaCl, 2 mM MgCl2, 1 mM DTT, 20 C, 10 nM RNA; EMSA: 2 nM RNA, 10-160 nM protein (buffer not in the material)
- CONDITION SUMMARY: protein: recombinant; tags: C-terminal CPD-His8 removed by 3C; label: 5' fluorescein

{"BINDER": "UUUCUAUUUAUUUUG (ssRNA) [ARE 15-mer AU-rich RNA]", "Kd": "~600 nM"}
